Ref: patent US20260216242A1

A collection of molecules and their measured Tm
# assayExplanation: Thermal stability (Protein Thermal Shift assay)
# Assay type: physicochemical
# statedConditions: VHH domains, first derivative analysis
# Experimental: Thermal stability assays used Applied Biosystems StepOne Real Time PCR system with the Protein Thermal Shift™ dye kit (Thermo Fisher). The assay mix was set up so that the protein was at a final concentration of 20 µM in 20 μL. 5 μL of Thermal Shift™ buffer was added alongside 2.5 μL 8× Thermal Shift™ Dye. Assays were run using the StepOne software and data analysed using Protein Thermal Shift™ software. All data are from first derivative analysis.
Just the number in °C, nothing appended.

molecule | measurementUnits | testResult
F09: ALPP targeting VHH domain, SEQ ID NO: 36 (protein) VHH: QVQLVESGGGSVQAGGSLRLSCAASGPSLSNYAMGWFRQAPGKEREFVAGISWGGGRTSCTDSVKGRFTISRDNAKNTVYLQMNNLKPEDTGVYYCAGRYGRGRNVEYEYDYWGQGTQVTVSS | °C | 72.1
C07: ALPP/ALPPL2 targeting VHH domain, SEQ ID NO: 25 (protein) VHH: QVQLVESGGGLVQAGESLRLACAASGTIFSGNAVGWYRQAPEKQREWVSSITDYGDTDYAEAVKGRFTISRDNAKNTVYLQMNSLKPEDTAVYYCYVYQRGESEEYWGQGTQVTVSS | °C | 70.7

State its Tm: H10: ALPP targeting VHH domain, SEQ ID NO: 40 (protein) VHH: QVQLVESGGGSVQTGGSLRLSCAASGPSLSNYAMGWFRQAPGKEREFVAGISWGGGRTNYLDSVKGRFTISRDNAKNTMYLQMNSLKPEDAAVYYCAGRYGRGRDVEYEYDYWGQGTQVTVSS 64.9
